- targetSystem: CETP (Homo sapiens, UniProt P11597)
- Construct: from tissue; host or cells: human plasma from normal volunteers
- Sequence (P11597 18-493): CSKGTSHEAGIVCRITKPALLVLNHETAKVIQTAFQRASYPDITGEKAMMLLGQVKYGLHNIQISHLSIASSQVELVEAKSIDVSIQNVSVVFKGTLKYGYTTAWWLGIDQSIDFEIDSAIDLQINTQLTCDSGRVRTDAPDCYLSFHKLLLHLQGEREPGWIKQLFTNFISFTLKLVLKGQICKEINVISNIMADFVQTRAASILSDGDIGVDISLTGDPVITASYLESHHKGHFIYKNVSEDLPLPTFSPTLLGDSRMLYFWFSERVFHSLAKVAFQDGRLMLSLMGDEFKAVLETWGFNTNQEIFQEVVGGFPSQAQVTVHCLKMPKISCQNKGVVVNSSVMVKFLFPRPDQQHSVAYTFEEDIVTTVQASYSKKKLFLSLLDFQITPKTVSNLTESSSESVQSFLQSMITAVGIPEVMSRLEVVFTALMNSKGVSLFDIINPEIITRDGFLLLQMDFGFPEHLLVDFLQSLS
- measurementProtocol: CETP in vitro assay ([3H]CE-HDL transfer, Amersham kit TRKQ7005; modified protocol in human plasma)
- Type: biochemical
- measurementSetup: 1 μM compound; multiple values = multiple measurements
Binary call on inhibition at 1 µM: criterion met from 20% upward, criterion not met beneath that.

Below, 4 compounds whose answers are already recorded.
compound: OC[C@@H](O)CN1c2cccc(-c3cccc(OC(F)(F)F)c3)c2OC[C@@H]1c1cccc(OC(F)(F)C(F)F)c1
cat: criterion met

compound: O[C@H](CN1c2cccc(-c3cc(C(F)(F)F)cc(C(F)(F)F)c3)c2OC[C@@H]1c1cccc(OC(F)(F)C(F)F)c1)C(F)(F)F
cat: criterion met

compound: CCN1c2cccc(-c3cccc(OC(F)(F)F)c3)c2OCC1c1cccc(OC(F)(F)C(F)F)c1 (stereo not shown)
cat: criterion met

compound: CCOC(=O)N1c2cccc(-c3cccc(OC(F)(F)F)c3)c2OCC1c1cccc(OC(F)(F)C(F)F)c1 (stereo not shown)
cat: criterion not met

-- ask Please indicate if the recorded inhibition at 1 µM for `O[C@H](CN1c2cccc(-c3cccc(OC(F)(F)F)c3)c2OC[C@@H]1c1cccc(OC(F)(F)F)c1)C(F)(F)F` meets or exceeds 20%.
-- reply criterion met

-- ask What do you have for `CC1(C)OC[C@H](CN2c3cccc(-c4cccc(OC(F)(F)F)c4)c3OC[C@@H]2c2cccc(OC(F)(F)C(F)F)c2)O1` ?
-- reply criterion met

-- ask What do you have for COCCCC1COc2c(-c3cccc(OC(F)(F)F)c3)cccc2N1CC(O)C(F)(F)F (stereo not shown) ?
-- reply criterion not met
